- System name: Human neutrophil elastase (HNE) (Homo sapiens) (UniProt P08246)
- Sequence: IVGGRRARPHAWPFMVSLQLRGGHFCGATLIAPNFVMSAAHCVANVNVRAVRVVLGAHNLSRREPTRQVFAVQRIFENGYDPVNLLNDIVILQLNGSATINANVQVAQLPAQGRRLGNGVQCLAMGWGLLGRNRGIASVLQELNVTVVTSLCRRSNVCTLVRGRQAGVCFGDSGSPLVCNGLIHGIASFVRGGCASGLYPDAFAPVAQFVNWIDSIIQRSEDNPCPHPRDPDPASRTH
- Protocol notes: filter
- Measurement setup: two internal fluoresceins in extension; 150 mM NaCl, 100 mM Tris-HCl pH 7.0, 2 mM MgCl2, 6 mM KCl, 0.02% HSA, 37 C
Attribute measured: pKd
One number for each entry, as −log10 of the molar value.

Q) For the sequence shown here, GNCACAGTCGACGATACTGCGTGGGTTGGGGCGGGTAGGGCCAGCAGTCTCGTNGACTGRGTC [DNA-EXT] , give the reported pKd.
A) 7.92

Provenance of the data: patent US5853984
